# credit: paper PMC6112376

tested on: isolated rat liver mitochondria; test: Oxygen consumption, Clark-type oxygen electrode; type: biochemical; details: 4 µM
Catalogue of I-sub, % of control (O2 consumption rate) readings, one per entry.
PROPERTY: I-sub, % of control (O2 consumption rate)

# COMPOUND, OBS VALUE
data = [
    ("N#CC(C#N)=NNc1ccc(OC(F)(F)F)cc1 [FCCP, reference compound]", "264 (36.5) % of control"),
    ("O=C(Nc1ccccc1)Nc1cnns1", "134 (17.5) % of control"),
    ("CC(C)(C)c1cc([N+](=O)[O-])cc([N+](=O)[O-])c1O", "320 (41.9) % of control"),
    ("CC[C@@H](C(=O)[C@@H](C)[C@@H](O)[C@H](C)CCc1ccc(C)c(O)c1C(=O)O)[C@H]1O[C@](CC)([C@H]2CC[C@](O)(CC)[C@H](C)O2)C[C@@H]1C [Lasalocid sodium, reference compound]", "164 (17.9) % of control"),
]

###

Where a name gives a salt, the structure may show the parent alone.
A set of compounds tested on rat primary hepatocytes, with measured MMP assays efficacy (%) Rat Hepatocytes:
PROPERTY: MMP assays efficacy (%) Rat Hepatocytes

# COMPOUND, SYSTEM NAME, OBS VALUE
rows = [
    ("Cc1cccc(C)c1Nc1ncccc1C(=O)O", "rat primary hepatocytes", -93),
    ("C=C1/C(=C\\C=C2/CCC[C@]3(C)[C@@H]([C@H](C)CCCC(C)(C)O)CC[C@@H]23)C[C@@H](O)C[C@@H]1O", "rat primary hepatocytes", -37),
    ("O=C(Nc1ccc(Cl)c(Cl)c1)c1cc(Cl)cc(Cl)c1O [3,5-Dichlorosalicyl-3,4-dichloroanilide]", "rat primary hepatocytes", -67),
    ("C=C(C)C(=O)OCC(O)COc1ccc(C(C)(C)c2ccc(OCC(O)COC(=O)C(=C)C)cc2)cc1 (stereo not drawn) [Bisphenol A glycidyl methacrylate]", "rat primary hepatocytes", -70),
    ("CC1CCCCC1NC(=O)Nc1ccccc1 (stereo not drawn)", "rat primary hepatocytes", -48),
    ("Oc1cc2ccccc2c2ccccc12", "rat primary hepatocytes", -94),
    ("ClC1C(Cl)C(Cl)C(Cl)C(Cl)C1Cl (stereo not drawn)", "rat primary hepatocytes", -54),
    ("CC(=O)[C@]1(O)Cc2c(O)c3c(c(O)c2[C@@H](O[C@H]2C[C@H](N)[C@H](O)[C@H](C)O2)C1)C(=O)c1ccccc1C3=O [Idarubicin hydrochloride]", "rat primary hepatocytes", -38),
    ("CC1(C(=O)Nc2ccc(O)c(Cl)c2Cl)CCCCC1", "rat primary hepatocytes", -62),
    ("CC[C@@H](C(=O)[C@@H](C)[C@@H](O)[C@H](C)CCc1ccc(C)c(O)c1C(=O)O)[C@H]1O[C@](CC)([C@H]2CC[C@](O)(CC)[C@H](C)O2)C[C@@H]1C [Lasalocid sodium, reference compound]", "rat primary hepatocytes", -105),
]

###

tested on: rat primary hepatocytes

# MOLECULE, SYSTEM NAME, MMP assays efficacy (%) Rat Hepatocytes
data = [
    ("c1ccc(-c2cccc(-c3ccccc3)c2)cc1 [1,1':3',1''-Terphenyl]", "rat primary hepatocytes", -53),
    ("Oc1ccc2ccccc2c1 [Compound 2-Naphthalenol]", "rat primary hepatocytes", -56),
    ("Cc1cc2nc3c(=O)[nH]c(=O)nc-3n(C[C@H](O)[C@H](O)[C@H](O)CO)c2cc1C [Riboflavin]", "rat primary hepatocytes", -97),
    ("Nc1ccc(/N=N/c2ccc(N)cc2)cc1 [4,4'-Diaminoazobenzene]", "rat primary hepatocytes", -50),
    ("Oc1c(Cl)cc(Cl)c(Cl)c1Cc1c(O)c(Cl)cc(Cl)c1Cl [Hexachlorophene]", "rat primary hepatocytes", -103),
    ("CC(=O)[O][Sn]([c]1ccccc1)([c]1ccccc1)[c]1ccccc1 [Triphenyltin acetate]", "rat primary hepatocytes", -74),
]
